Measured values drawn from ChEMBL document CHEMBL1201862 for this set.

System: EKVX
PROTOCOL: NCI tumour cell line growth inhibition, 48 h
The source made the active and inactive calls. No stated cut-off is given here; in the data, active = GI50 up to about 1.1 µM and inactive = higher.
Below: a set of entries, each annotated with reported GI50.

Example compounds with recorded GI50:
[[record]]
compound = "CSc1ccc(-c2cn3ccsc3n2)c(O)c1"
attribute_measured = "GI50"
measured_value = "> 81.3 µM (inactive)"

[[record]]
compound = "Cc1ccc(S(=O)(=O)NNC(=O)Nc2ccc([N+](=O)[O-])cc2)cc1"
attribute_measured = "GI50"
measured_value = "> 100 µM (inactive)"


What reported GI50 corresponds to "O=c1[nH]c2cc(F)c(F)cc2nc1Cc1ccccc1" on EKVX?
> 100 µM (inactive)

Follow-up entry: "CN(Cc1ccccc1)/C(=N\C#N)N(Cc1ccccc1)Cc1ccccc1"
34.6 µM (inactive)

Follow-up entry: CC1(C)C(O)c2ccccc2OC1N1CCN(C2Oc3ccccc3C(O)C2(C)C)CC1 (stereo not given)
> 100 µM (inactive)

Follow-up entry: "CN(C)CCN1N=Nc2cccc3cccc1c23"
> 100 µM (inactive)

Follow-up entry: C/C(=C\CCC1=CC(=O)OC1)CCC1C2C(=O)CC(C)[C@@]3(C)CC[C@]1(C)[C@@]23C (stereo not given in full)
> 10 µM (inactive)

Follow-up entry: "O=S(=O)(O)c1cc(O)c2c(O)c(/N=N/c3cccc4ccccc34)c(S(=O)(=O)O)cc2c1"
> 100 µM (inactive)

Follow-up entry: "O=C(/C=C/c1cccc(Oc2ccccc2)c1)NCc1ccc(C(=O)NCCc2ccccc2)cc1"
> 100 µM (inactive)

Follow-up entry: COC(=O)C1=CC(=O)C(C(=O)Nc2ccc(OC)cc2)C(c2ccccc2)O1 (stereo not given)
44.1 µM (inactive)

----------
Tested on: IGROV-1
PROTOCOL: NCI tumour cell line growth inhibition, 48 h
Activity calls are given as the source filed them. Rule as the data show it: active = GI50 up to about 1.1 µM and inactive = higher.
// allowed return values: label 1 for active, label 0 for inactive

Recorded results for 5 molecules are shown here.
[[record]]
molecule = "N#Cc1c(Cl)nc2ccccc2c1N=[N+]=[N-]"
answer_label = "label 0"

[[record]]
molecule = "C=C1CC(Cn2cc(C)c(=O)[nH]c2=O)(c2ccc(Cl)cc2)OC1=O (stereo not given)"
answer_label = "label 0"

[[record]]
molecule = "CC1CCN(CCC(=O)CC(c2ccccc2)c2c(O)c3ccccc3oc2=O)CC1 (stereo not given)"
answer_label = "label 0"

[[record]]
molecule = "CNC(=S)N/N=C/c1ccc([N+](=O)[O-])s1"
answer_label = "label 0"

[[record]]
molecule = "Cc1cc(/N=C/c2ccc(C#N)cc2)n(-c2ccccc2)n1"
answer_label = "label 0"


// return assay outcome for COc1cc2oc3cc(=O)cc4oc(-c5ccccc5)cc(c2c2c1CCC(c1ccccc1)O2)c43 (stereo not given)
label 0

Follow-up entry: COc1cc([C@@H]2c3cc4c(cc3C(N)C3COC(=O)[C@@H]32)OCO4)cc(OC)c1O (stereo not given in full)
label 1

Follow-up entry: CC1(C)C(O)c2ccccc2OC1N1CCN(C2Oc3ccccc3C(O)C2(C)C)CC1 (stereo not given)
label 0

Follow-up entry: "O=C1C=C(C2=CC(=O)C(=O)c3ccccc32)c2ccccc2C1=O"
label 0

Follow-up entry: "CC(=O)c1c(SCCN2CCCCCC2)n(-c2ccccc2)c(=S)n(-c2ccccc2)c1=O"
label 0

----------
System: HCC 2998
PROTOCOL: NCI tumour cell line growth inhibition, 48 h
Activity calls are given as the source filed them. Cut-off read from the data, not from the text of the source: active = GI50 up to about 1.1 µM and inactive = higher.
ATTRIBUTE MEASURED: GI50

Example molecules with recorded GI50:
[[record]]
molecule = "CC1=CCC2CC1NC(=O)CCOCCC(=O)NC2(C)C (stereo unspecified)"
attribute_measured = "GI50"
measured_value = "> 100 µM (inactive)"

[[record]]
molecule = "O=C1NC2C(CCO)CC=C[C@H]2c2cc3c(cc21)OCO3 (stereo partly specified)"
attribute_measured = "GI50"
measured_value = "> 10 µM (inactive)"

[[record]]
molecule = "CC(C)Cc1cc(CCC(=O)Nc2ccccc2[N+](=O)[O-])nc(NC#N)n1"
attribute_measured = "GI50"
measured_value = "> 100 µM (inactive)"

[[record]]
molecule = "CCN(CC)CCCNC(=O)Cc1ccccc1Nc1c(Cl)cccc1Cl"
attribute_measured = "GI50"
measured_value = "3.01 µM (inactive)"

[[record]]
molecule = "N#CCc1nc(-c2cc3c(ccc4ccccc43)oc2=O)cs1"
attribute_measured = "GI50"
measured_value = "69.3 µM (inactive)"


Next item in the queue.
Find the recorded GI50 belonging to "NNC(=O)c1ccc(-n2nnc(C(=O)NN)c2C(=O)NN)cc1" and report it.
> 100 µM (inactive)

----------
Tested on: HL-60
PROTOCOL: NCI tumour cell line growth inhibition, 48 h
Active and inactive are the calls of the source. Cut-off read from the data, not from the text of the source: active = GI50 up to about 1.1 µM and inactive = higher.
// allowed return values: True for active, False for inactive

Recorded results for 8 compounds are shown here.
[[record]]
compound = "COC(=O)C1=CC(=O)C(C(=O)Nc2ccc(OC)cc2)C(c2ccccc2)O1 (stereo unspecified)"
answer_label = "False"

[[record]]
compound = "C=CC1(NS(=O)(=O)c2ccc(C)cc2)CCC(C(C)(C)C)CC1 (stereo unspecified)"
answer_label = "False"

[[record]]
compound = "Cc1nnc2c3c(-c4ccccc4)c(-c4ccccc4)oc3nc(N(C)C)n12"
answer_label = "False"

[[record]]
compound = "CCOP(=O)(OCC)C(NC(=O)OCC(Cl)(Cl)Cl)n1nnc(C(=O)OC)c1C(=O)OC (stereo unspecified)"
answer_label = "False"

[[record]]
compound = "Cc1cc(NC(=O)C(=O)Cc2cnc3ccccc3n2)c(S(=O)(=O)O)cc1Cl"
answer_label = "False"

[[record]]
compound = "C=C1[C@H](OCC(C)C)[C@@H](OC(=O)C(C)CC)[C@@H](O)C(C)(C)/C=C/[C@H](C)C(=O)[C@@]2(O)C[C@H](C)[C@H](O)[C@@H]2[C@H]1OC(=O)C(C)CC (stereo partly specified)"
answer_label = "True"

[[record]]
compound = "O=C(NCCCN1CCN(CCCNC(=O)Nc2cc(Cl)ccc2Cl)CC1)Nc1cc(Cl)ccc1Cl"
answer_label = "False"

[[record]]
compound = "Cc1ccc(C)c(N2C(=O)C(=O)C(c3nc4ccccc4o3)/C(=N\\NC(=O)c3ccccc3O)C2=O)c1 (stereo unspecified)"
answer_label = "True"


Alright, here's another compound for you.
// return assay outcome for "COc1cc(O)c2c(=O)c3cccc(C)c3[nH]c2c1"
False

----------
Test system: ACHN
PROTOCOL: NCI tumour cell line growth inhibition, 48 h
Active and inactive are the calls of the source. Cut-off read from the data, not from the text of the source: active = GI50 up to about 1.1 µM and inactive = higher.
// allowed return values: true (1) (active), false (0) (inactive)

Recorded results for 3 molecules are shown here.
[[record]]
molecule = "Cc1cc2c(cc1O)CC[C@@H]1[C@@H]2CC[C@]2(C)[C@@H](O)CC[C@@H]12"
answer_label = "false (0)"

[[record]]
molecule = "O=c1ccn([C@@H]2C[C@H](CO)C[S+]([O-])C2)c(=O)[nH]1 (stereo not given in full)"
answer_label = "false (0)"

[[record]]
molecule = "Nc1ccc(Nc2cc(=O)[nH]c(=O)[nH]2)cc1Cl"
answer_label = "false (0)"


Alright, here's another molecule for you.
// return assay outcome for "CC(=O)CSc1c(-c2ccccc2)c(=O)n(-c2ccccc2)c(=S)n1-c1ccccc1"
false (0)

----------
System: UACC-257
PROTOCOL: NCI tumour cell line growth inhibition, 48 h
The source made the active and inactive calls. No stated cut-off is given here; in the data, active = GI50 up to about 1.1 µM and inactive = higher.
ATTRIBUTE MEASURED: GI50

Example compounds with recorded GI50:
[[record]]
compound = "CC[C@]1(Cc2ccc(OC)c(OC)c2)C=[N+]([O-])O[C@H](OC2CCCC2(c2ccccc2)c2ccccc2)[C@@H]1OC(=O)c1ccccc1 (some centres undefined)"
tgt = "UACC-257"
measured_value = "14 µM (inactive)"

[[record]]
compound = "O=C(O)c1nnsc1-c1csnn1"
tgt = "UACC-257"
measured_value = "> 100 µM (inactive)"

[[record]]
compound = "CCN(CC)CC1CCCCN1CC(=O)N1c2ccccc2C(=O)Nc2cccnc21 (centres undefined)"
tgt = "UACC-257"
measured_value = "38.1 µM (inactive)"

[[record]]
compound = "COc1ccc(Cn2nc(OCc3ccccn3)c3cc([N+](=O)[O-])ccc32)cc1"
tgt = "UACC-257"
measured_value = "> 100 µM (inactive)"

[[record]]
compound = "Cc1cc(NS(=O)(=O)c2ccc(NC(=O)c3cccc4c(Nc5ccc(S(=O)(=O)Nc6cc(C)on6)cc5)c5ccc(Cl)cc5nc34)cc2)no1"
tgt = "UACC-257"
measured_value = "> 100 µM (inactive)"


Find the recorded GI50 belonging to CCC(O)CCCCCCCCCCCCCCC(=O)O (centres undefined) and report it.
> 100 µM (inactive)

----------
System: RXF 393
PROTOCOL: NCI tumour cell line growth inhibition, 48 h
Active and inactive are the calls of the source. No stated cut-off is given here; in the data, active = GI50 up to about 1.1 µM and inactive = higher.
Below: a set of entries, each annotated with reported GI50.

Example compounds with recorded GI50:
[[record]]
compound = "C=C1[C@H](OCC(C)C)[C@@H](OC(=O)C(C)CC)[C@@H](O)C(C)(C)/C=C/[C@H](C)C(=O)[C@@]2(O)C[C@H](C)[C@H](O)[C@@H]2[C@H]1OC(=O)C(C)CC (stereo not given in full)"
attribute_measured = "GI50"
measured_value = "6.14 µM (inactive)"

[[record]]
compound = "COc1ccc(OC)c(C(=O)c2cccc(C(=O)c3cc(OC)ccc3OC)n2)c1"
attribute_measured = "GI50"
measured_value = "5.12 µM (inactive)"

[[record]]
compound = "Nc1ccn(C2OC(CO)C(O)C2O)c(=O)n1 (stereo not given)"
attribute_measured = "GI50"
measured_value = "191 µM (inactive)"

[[record]]
compound = "Cc1cc(=O)n2c(cc3cccccc32)n1"
attribute_measured = "GI50"
measured_value = "> 100 µM (inactive)"

[[record]]
compound = "CCOC(=O)C(=[N+]=[N-])C(=O)CN1C(=O)C2CC(C)=C(C)CC2C1O (stereo not given)"
attribute_measured = "GI50"
measured_value = "> 100 µM (inactive)"

[[record]]
compound = "CCCCCCCCCCNC(=S)OC"
attribute_measured = "GI50"
measured_value = "33.7 µM (inactive)"

[[record]]
compound = "NS(=O)(=O)c1ccc(NC(=O)Nc2cccc3ccccc23)cc1"
attribute_measured = "GI50"
measured_value = "30.5 µM (inactive)"

[[record]]
compound = "COc1ccc(-c2cc(-c3ccc(Nc4ccnc5cc(Cl)ccc45)cc3)[nH]c(=O)c2C#N)cc1"
attribute_measured = "GI50"
measured_value = "> 100 µM (inactive)"


Find the recorded GI50 belonging to Cc1ccc(C(=O)C2=CN=C3C(=O)N(c4ccccc4)N(C)C3(C)C2=N)cc1 (stereo not given) and report it.
> 100 µM (inactive)

Follow-up entry: "CN(C)CCCN1c2ccccc2Sc2cnccc21"
83 µM (inactive)
